Data origin: patent US11034725B2

# Target Or Test System: PCSK9 (Homo sapiens)
# Sequence (Q8NBP7 153-692): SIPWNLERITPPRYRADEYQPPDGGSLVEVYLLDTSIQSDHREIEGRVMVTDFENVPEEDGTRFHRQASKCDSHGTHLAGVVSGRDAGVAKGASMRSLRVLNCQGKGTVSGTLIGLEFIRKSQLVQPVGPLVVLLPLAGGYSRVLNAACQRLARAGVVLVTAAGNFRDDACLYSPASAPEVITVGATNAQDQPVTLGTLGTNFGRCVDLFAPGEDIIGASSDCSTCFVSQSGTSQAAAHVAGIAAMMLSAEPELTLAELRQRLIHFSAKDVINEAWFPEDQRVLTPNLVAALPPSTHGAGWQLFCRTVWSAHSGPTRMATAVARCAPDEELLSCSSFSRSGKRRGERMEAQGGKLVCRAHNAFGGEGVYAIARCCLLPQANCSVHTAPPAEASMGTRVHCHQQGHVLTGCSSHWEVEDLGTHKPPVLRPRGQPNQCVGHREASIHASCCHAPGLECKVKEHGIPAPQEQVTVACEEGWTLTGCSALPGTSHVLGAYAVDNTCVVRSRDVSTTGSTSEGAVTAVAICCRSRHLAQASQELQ
# Sequence (Q8NBP7 31-152 partner limits assumed): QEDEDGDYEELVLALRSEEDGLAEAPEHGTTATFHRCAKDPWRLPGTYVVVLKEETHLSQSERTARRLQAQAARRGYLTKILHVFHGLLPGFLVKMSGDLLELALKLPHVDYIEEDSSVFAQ
# Run Description: PCSK9/EGF(A) TR-FRET binding assay
# Recorded Conditions: TR-FRET; Table 8E, additional compounds; read-out: PCSK9/EGF(A) IC50
pIC50: −log10 of the molar value. Square brackets hold non-standard residues; d marks the D form. Peptide text beside a SMILES is read from it. * marks the point of attachment. hArg = N=C(N)NCCCC[C@H](N)C(=O)O; Pentanoyl = CCCCC(=O)*
Readout Type: pIC50

Notebook: CCCCC(=O)N[C@@H](Cc1c[nH]c2ccccc12)C(=O)N[C@@H](CC(N)=O)C(=O)N[C@@H](CC(C)C)C(=O)N[C@H](C(=O)N[C@@H](CCCCNC(=N)N)C(=O)N[C@H](C(=O)NCC(=O)N[C@@H](CC(C)C)C(=O)N[C@H](C(=O)N[C@@H](CCCNC(=N)N)C(N)=O)[C@@H](C)O)[C@@H](C)CC)C(C)C [Compound 234, n-BuC(O)-WNLV(homoR)IGLTR-NH2] (Pentanoyl-WNLV[hArg]IGLTR-NH2) , pIC50 read as ≤ 4.30

Notebook: CCCCC(=O)N[C@@H](Cc1c[nH]c2ccccc12)C(=O)N[C@@H](CC(N)=O)C(=O)N[C@@H](CC(C)C)C(=O)N[C@H](C(=O)N[C@@H](CCCNC(=N)N)C(=O)N[C@H](C(=O)NCC(=O)N[C@@H](CC(C)C)C(=O)N[C@@H](C)C(=O)N[C@@H](CCCNC(=N)N)C(N)=O)[C@@H](C)CC)C(C)C [Compound 180] (Pentanoyl-WNLVRIGLAR-NH2) , pIC50 read as ≤ 4.30

---

Provide the recorded pIC50 for the entries that follow.
# Target Or Test System: PCSK9 (Homo sapiens)
# Run Description: PCSK9/EGF(A) TR-FRET binding assay
# Recorded Conditions: Table 11, average ±S.D. of three experiments; read-out: EGF(A) IC50
Square brackets hold non-standard residues; d marks the D form. Peptide text beside a SMILES is read from it. hArg = N=C(N)NCCCC[C@H](N)C(=O)O
# log scale: pIC50 equals minus log10 of the concentration in mol/L

Notebook: CC[C@H](C)[C@H](NC(=O)[C@H](CCCCNC(=N)N)NC(=O)[C@@H](NC(=O)[C@H](CC(C)C)NC(=O)[C@H](CC(N)=O)NC(=O)[C@H](Cc1c[nH]c2ccccc12)NC(=O)CNC(=O)[C@@H]1CCCN1C(=O)[C@H](Cc1ccccc1)NC(=O)[C@H](CO)NC(=O)[C@H](CCC(=O)O)NC(=O)[C@H](CCSC)NC(C)=O)C(C)C)C(=O)NCC(=O)N[C@@H](CC(C)C)C(=O)N[C@@H](CC(C)C)C(=O)N[C@@H](CCCNC(=N)N)C(N)=O [Compound 229] (Ac-MESFPGWNLV[hArg]IGLLR-NH2) , pIC50 read as 5.08

Notebook: CC[C@H](C)[C@H](NC(=O)[C@H](CCCCNC(=N)N)NC(=O)[C@@H](NC(=O)[C@H](CC(C)C)NC(=O)[C@H](CC(N)=O)NC(=O)[C@H](Cc1c[nH]c2ccccc12)NC(=O)CNC(=O)[C@@H]1CCCN1C(=O)[C@H](Cc1ccccc1)NC(=O)[C@H](C)NC(=O)[C@H](Cc1ccccc1)NC(=O)[C@H](CO)NC(C)=O)C(C)C)C(=O)NCC(=O)N[C@@H](CC(C)C)C(=O)N[C@@H](CC(C)C)C(=O)N[C@@H](CCCNC(=N)N)C(N)=O [Compound 228] (Ac-SFAFPGWNLV[hArg]IGLLR-NH2) , pIC50 read as 4.88

Notebook: CC[C@H](C)[C@H](NC(=O)[C@H](CCCCNC(=N)N)NC(=O)[C@@H](NC(=O)[C@H](CC(C)C)NC(=O)[C@H](CC(N)=O)NC(=O)[C@H](Cc1c[nH]c2ccccc12)NC(=O)CNC(=O)[C@@H]1CCCN1C(=O)[C@H](Cc1ccc(O)cc1)NC(=O)[C@H](CO)NC(=O)[C@H](CC(=O)O)NC(C)=O)C(C)C)C(=O)NCC(=O)N[C@@H](CC(C)C)C(=O)N[C@@H](CC(C)C)C(=O)N[C@@H](CCCNC(=N)N)C(N)=O [Compound 230] (Ac-DSYPGWNLV[hArg]IGLLR-NH2) , pIC50 read as 4.62

Notebook: CC[C@H](C)[C@H](NC(=O)[C@H](CCCCNC(=N)N)NC(=O)[C@@H](NC(=O)[C@H](CC(C)C)NC(=O)[C@H](CC(N)=O)NC(=O)[C@H](Cc1c[nH]c2ccccc12)NC(=O)CNC(=O)[C@@H]1CCCN1C(=O)[C@H](Cc1ccccc1)NC(=O)[C@H](CO)NC(=O)[C@H](CCC(=O)O)NC(C)=O)C(C)C)C(=O)NCC(=O)N[C@@H](CC(C)C)C(=O)N[C@@H](CC(C)C)C(=O)N[C@@H](CCCNC(=N)N)C(N)=O [Compound 227] (Ac-ESFPGWNLV[hArg]IGLLR-NH2) , pIC50 read as 4.63

Notebook: CC[C@H](C)[C@H](NC(=O)[C@H](CCCCNC(=N)N)NC(=O)[C@@H](NC(=O)[C@H](CC(C)C)NC(=O)[C@H](CC(N)=O)NC(=O)[C@H](Cc1c[nH]c2ccccc12)NC(=O)CNC(=O)[C@@H]1CCCN1C(=O)[C@H](Cc1ccc(O)cc1)NC(=O)[C@H](CO)NC(=O)[C@H](CCC(=O)O)NC(C)=O)C(C)C)C(=O)NCC(=O)N[C@@H](CC(C)C)C(=O)N[C@@H](CC(C)C)C(=O)N[C@@H](CCCNC(=N)N)C(N)=O [Compound 231] (Ac-ESYPGWNLV[hArg]IGLLR-NH2) , pIC50 read as 4.80

---

# Target Or Test System: PCSK9Δhelix (Homo sapiens)
# Construct: Human PCSK9 construct M1-Q692 with an engineered TEV site (residue deletion Y166, R167); made in house; host or cells: CHO
# Sequence (Q8NBP7 with tags, fused parts or gaps limits assumed, one chain of several): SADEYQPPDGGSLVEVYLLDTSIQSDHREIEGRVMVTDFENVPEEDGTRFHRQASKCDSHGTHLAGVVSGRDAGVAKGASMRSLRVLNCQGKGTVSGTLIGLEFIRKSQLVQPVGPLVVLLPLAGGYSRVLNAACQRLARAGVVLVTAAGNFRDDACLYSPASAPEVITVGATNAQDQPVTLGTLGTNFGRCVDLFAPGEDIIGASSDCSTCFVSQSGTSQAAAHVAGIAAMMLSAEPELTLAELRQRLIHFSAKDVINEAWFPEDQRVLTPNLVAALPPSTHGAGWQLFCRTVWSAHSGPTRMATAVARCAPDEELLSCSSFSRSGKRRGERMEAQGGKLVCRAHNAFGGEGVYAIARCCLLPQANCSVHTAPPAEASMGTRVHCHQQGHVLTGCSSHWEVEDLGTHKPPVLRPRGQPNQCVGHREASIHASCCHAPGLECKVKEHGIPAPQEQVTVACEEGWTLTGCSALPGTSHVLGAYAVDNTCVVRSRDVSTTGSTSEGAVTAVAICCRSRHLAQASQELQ
# Run Description: PCSK9Δhelix/Ab20 TR-FRET binding assay
# Recorded Conditions: TR-FRET; Table 8D, disulfide-cyclized extension peptides; read-out: PCSK9Δhelix/Ab20 IC50
Bridge positions count the residues as written; N and C are the ends. Peptide text beside a SMILES is read from it.
Provide the recorded pIC50 for the entries that follow.
# log scale: pIC50 equals minus log10 of the concentration in mol/L

Notebook: CC[C@H](C)[C@@H]1NC(=O)[C@H](CCCNC(=N)N)NC(=O)[C@H](CCC(N)=O)NC(=O)[C@H](CC(C)C)NC(=O)[C@H](CC(N)=O)NC(=O)[C@H](Cc2c[nH]c3ccccc23)NC(=O)[C@@H]2CCCN2C(=O)[C@H](CC(C)C)NC(=O)[C@H](CCCNC(=N)N)NC(=O)[C@@H](NC(C)=O)CSSC[C@@H](C(N)=O)NC(=O)CNC(=O)CNC(=O)CNC1=O [Compound 81] (Ac-CRLPWNLQRIGGGC-NH2; disulfide 1-14) , pIC50 read as 4.54

Notebook: CC[C@H](C)[C@@H]1NC(=O)[C@H](CCCNC(=N)N)NC(=O)[C@H](CCC(N)=O)NC(=O)[C@H](CC(C)C)NC(=O)[C@H](CC(N)=O)NC(=O)[C@H](Cc2c[nH]c3ccccc23)NC(=O)[C@@H]2CCCN2C(=O)[C@H](CC(C)C)NC(=O)[C@H](C)NC(=O)[C@@H](NC(C)=O)CSSC[C@@H](C(N)=O)NC(=O)[C@@H]2CCCN2C(=O)[C@H](CC(C)C)NC(=O)CNC1=O [Compound 79] (Ac-CALPWNLQRIGLPC-NH2; disulfide 1-14) , pIC50 read as 5.82

---

# Target Or Test System: UniProtKB Q8NBP7
# Run Description: PCSK9/LDLR-Fc TR-FRET assay (LDLR assay)
# Assay type: binding
# Recorded Conditions: Table 11, LDLR-Fc, average ±S.D. of three experiments
pIC50: −log10 of the molar value. Square brackets hold non-standard residues; d marks the D form. Peptide text beside a SMILES is read from it. hArg = N=C(N)NCCCC[C@H](N)C(=O)O
Readout Type: pIC50

Notebook: CC[C@H](C)[C@H](NC(=O)[C@H](CCCCNC(=N)N)NC(=O)[C@@H](NC(=O)[C@H](CC(C)C)NC(=O)[C@H](CC(N)=O)NC(=O)[C@H](Cc1c[nH]c2ccccc12)NC(=O)CNC(=O)[C@@H]1CCCN1C(=O)[C@H](Cc1ccc(O)cc1)NC(=O)[C@H](CO)NC(=O)[C@H](CC(=O)O)NC(C)=O)C(C)C)C(=O)NCC(=O)N[C@@H](CC(C)C)C(=O)N[C@@H](CC(C)C)C(=O)N[C@@H](CCCNC(=N)N)C(N)=O [Compound 230] (Ac-DSYPGWNLV[hArg]IGLLR-NH2) , pIC50 read as < 4.30

Notebook: CC[C@H](C)[C@H](NC(=O)[C@H](CCCCNC(=N)N)NC(=O)[C@@H](NC(=O)[C@H](CC(C)C)NC(=O)[C@H](CC(N)=O)NC(=O)[C@H](Cc1c[nH]c2ccccc12)NC(=O)CNC(=O)[C@@H]1CCCN1C(=O)[C@H](Cc1ccc(O)cc1)NC(=O)[C@H](CO)NC(=O)[C@H](CCC(=O)O)NC(C)=O)C(C)C)C(=O)NCC(=O)N[C@@H](CC(C)C)C(=O)N[C@@H](CC(C)C)C(=O)N[C@@H](CCCNC(=N)N)C(N)=O [Compound 231] (Ac-ESYPGWNLV[hArg]IGLLR-NH2) , pIC50 read as < 4.30

Notebook: CC[C@H](C)[C@H](NC(=O)[C@H](CCCCNC(=N)N)NC(=O)[C@@H](NC(=O)[C@H](CC(C)C)NC(=O)[C@H](CC(N)=O)NC(=O)[C@H](Cc1c[nH]c2ccccc12)NC(=O)CNC(=O)[C@@H]1CCCN1C(=O)[C@H](Cc1ccccc1)NC(=O)[C@H](C)NC(=O)[C@H](Cc1ccccc1)NC(=O)[C@H](CO)NC(C)=O)C(C)C)C(=O)NCC(=O)N[C@@H](CC(C)C)C(=O)N[C@@H](CC(C)C)C(=O)N[C@@H](CCCNC(=N)N)C(N)=O [Compound 228] (Ac-SFAFPGWNLV[hArg]IGLLR-NH2) , pIC50 read as 4.52

Notebook: CC[C@H](C)[C@H](NC(=O)[C@H](CCCCNC(=N)N)NC(=O)[C@@H](NC(=O)[C@H](CC(C)C)NC(=O)[C@H](CC(N)=O)NC(=O)[C@H](Cc1c[nH]c2ccccc12)NC(=O)CNC(=O)[C@@H]1CCCN1C(=O)[C@H](Cc1ccccc1)NC(=O)[C@H](CO)NC(=O)[C@H](CCC(=O)O)NC(=O)[C@H](CCSC)NC(C)=O)C(C)C)C(=O)NCC(=O)N[C@@H](CC(C)C)C(=O)N[C@@H](CC(C)C)C(=O)N[C@@H](CCCNC(=N)N)C(N)=O [Compound 229] (Ac-MESFPGWNLV[hArg]IGLLR-NH2) , pIC50 read as 4.60

Notebook: CC[C@H](C)[C@H](NC(=O)[C@H](CCCCNC(=N)N)NC(=O)[C@@H](NC(=O)[C@H](CC(C)C)NC(=O)[C@H](CC(N)=O)NC(=O)[C@H](Cc1c[nH]c2ccccc12)NC(C)=O)C(C)C)C(=O)NCC(=O)N[C@@H](CC(C)C)C(=O)N[C@@H](CC(C)C)C(=O)N[C@@H](CCCNC(=N)N)C(N)=O [Compound 192, Ac-WNLV(homoR)IGLLR-NH2] (Ac-WNLV[hArg]IGLLR-NH2) , pIC50 read as < 4.30

Notebook: CC[C@H](C)[C@H](NC(=O)[C@H](CCCCNC(=N)N)NC(=O)[C@@H](NC(=O)[C@H](CC(C)C)NC(=O)[C@H](CC(N)=O)NC(=O)[C@H](Cc1c[nH]c2ccccc12)NC(=O)CNC(=O)[C@@H]1CCCN1C(=O)[C@H](Cc1ccccc1)NC(=O)[C@H](CO)NC(=O)[C@H](CCC(=O)O)NC(C)=O)C(C)C)C(=O)NCC(=O)N[C@@H](CC(C)C)C(=O)N[C@@H](CC(C)C)C(=O)N[C@@H](CCCNC(=N)N)C(N)=O [Compound 227] (Ac-ESFPGWNLV[hArg]IGLLR-NH2) , pIC50 read as < 4.30
